- System: proTGFβ1 presented by endogenous LTBP1/3 in LN229 cells
- Sequence (P01137 30-390): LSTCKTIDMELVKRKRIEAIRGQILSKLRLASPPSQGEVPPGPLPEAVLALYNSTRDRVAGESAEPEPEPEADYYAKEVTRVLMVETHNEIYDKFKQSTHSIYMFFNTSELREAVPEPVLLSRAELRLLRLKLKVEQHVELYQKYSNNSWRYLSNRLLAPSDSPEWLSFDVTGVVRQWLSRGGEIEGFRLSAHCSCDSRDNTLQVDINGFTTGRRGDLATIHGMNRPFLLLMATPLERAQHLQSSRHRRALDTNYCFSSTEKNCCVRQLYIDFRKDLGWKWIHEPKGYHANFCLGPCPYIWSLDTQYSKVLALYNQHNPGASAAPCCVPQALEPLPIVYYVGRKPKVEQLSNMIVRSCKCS
- protocol: Endogenous LTBP caga assay: LN229 cells transfected with human proTGFβ1 only, CAGA12 luciferase reporter cells
- Type: cell-based
- details: Table 20: protocol of Example 10 with Fabs (RefAb also as hIgG4), assay format not stated
Quick reference for pIC50 among some molecules
Scale: negative log10 of molar concentration, which is what pIC50 denotes.

SR-AB55 Fab (antibody, V domains shown) VH: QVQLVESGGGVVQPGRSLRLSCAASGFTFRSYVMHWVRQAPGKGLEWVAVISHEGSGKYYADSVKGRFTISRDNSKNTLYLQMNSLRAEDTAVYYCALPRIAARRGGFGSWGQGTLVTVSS VL: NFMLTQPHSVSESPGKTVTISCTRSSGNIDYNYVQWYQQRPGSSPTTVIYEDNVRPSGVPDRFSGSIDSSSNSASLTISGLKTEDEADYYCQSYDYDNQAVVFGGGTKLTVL; 9.27

Okay, now this molecule:
Q. Entry SR-AB60 Fab (antibody, V domains shown) VH: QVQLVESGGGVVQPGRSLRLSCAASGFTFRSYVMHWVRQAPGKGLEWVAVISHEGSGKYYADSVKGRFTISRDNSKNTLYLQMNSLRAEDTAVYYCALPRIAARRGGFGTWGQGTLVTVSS VL: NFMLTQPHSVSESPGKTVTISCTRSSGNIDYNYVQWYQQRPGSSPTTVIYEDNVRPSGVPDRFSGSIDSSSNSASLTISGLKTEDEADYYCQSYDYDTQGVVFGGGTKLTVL : reported pIC50 = ?
A. 9.13
